# target-or-test-system: ACE (Oryctolagus cuniculus)
# Construct: the angiotensin-I-converting enzyme from rabbit lung (2 units/mg protein); purchased Sigma Chemical Co. (St. Louis, MO, USA); host or cells: rabbit lung (tissue-derived)
# Sequence (P12822 34-1310): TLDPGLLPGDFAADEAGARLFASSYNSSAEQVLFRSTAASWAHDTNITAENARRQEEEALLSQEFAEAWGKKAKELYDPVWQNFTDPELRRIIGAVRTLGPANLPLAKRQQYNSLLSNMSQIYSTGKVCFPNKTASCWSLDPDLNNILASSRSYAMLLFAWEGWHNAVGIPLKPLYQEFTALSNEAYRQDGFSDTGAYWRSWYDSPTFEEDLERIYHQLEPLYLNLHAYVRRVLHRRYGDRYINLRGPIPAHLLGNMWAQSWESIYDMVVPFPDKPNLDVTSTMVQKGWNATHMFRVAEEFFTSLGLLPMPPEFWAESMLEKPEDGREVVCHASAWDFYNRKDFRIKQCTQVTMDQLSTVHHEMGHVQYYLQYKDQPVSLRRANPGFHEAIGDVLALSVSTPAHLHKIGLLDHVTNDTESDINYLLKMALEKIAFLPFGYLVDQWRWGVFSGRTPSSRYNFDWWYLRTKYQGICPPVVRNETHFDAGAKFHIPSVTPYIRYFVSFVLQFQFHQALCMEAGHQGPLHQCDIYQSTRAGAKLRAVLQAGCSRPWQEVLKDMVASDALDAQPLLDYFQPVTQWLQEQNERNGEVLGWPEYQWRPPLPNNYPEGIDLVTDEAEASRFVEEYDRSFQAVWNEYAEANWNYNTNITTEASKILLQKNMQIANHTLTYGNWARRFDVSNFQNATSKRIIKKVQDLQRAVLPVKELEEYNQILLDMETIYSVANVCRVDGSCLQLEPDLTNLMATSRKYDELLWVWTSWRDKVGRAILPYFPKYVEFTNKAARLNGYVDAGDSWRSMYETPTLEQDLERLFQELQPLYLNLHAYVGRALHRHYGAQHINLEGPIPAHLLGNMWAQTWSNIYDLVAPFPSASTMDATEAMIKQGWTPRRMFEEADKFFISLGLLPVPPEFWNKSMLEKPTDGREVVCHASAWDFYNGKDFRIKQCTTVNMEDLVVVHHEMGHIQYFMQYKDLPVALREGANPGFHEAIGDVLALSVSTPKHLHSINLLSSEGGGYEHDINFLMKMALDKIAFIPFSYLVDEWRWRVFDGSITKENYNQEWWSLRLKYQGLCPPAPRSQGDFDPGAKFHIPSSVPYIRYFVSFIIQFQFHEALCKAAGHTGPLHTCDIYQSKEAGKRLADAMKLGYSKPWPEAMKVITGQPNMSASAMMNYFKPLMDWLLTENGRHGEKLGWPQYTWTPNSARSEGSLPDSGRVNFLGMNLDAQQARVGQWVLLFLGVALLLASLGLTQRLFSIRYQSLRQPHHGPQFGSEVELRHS
# experiment: Effect of ACE on papain-generated peptides: hydrolysis of peptides by ACE followed by RP-HPLC
# Format: in vitro ADME, rabbit
# measurement-setup: rabbit, isolated ACE (angiotensin-converting enzyme) solution; incubation with ACE (100 mU/mL) 37 °C, 0.5 h; peptide 2 mM (YGIKVGYAIP), 4 mM (GGIF, GIFE); read-out: Cleavage (%)
No end group written: not given here.
value-kind: metabolised at 0.5 h (%)
Supply the numeric figure in %, leaving out any unit text.

Inquiry: Give the measured metabolised at 0.5 h of YGIKVGYAIP [YGIKVGYAIP] .
Reply text: 70

Reference for the values: paper PMC9789325
